# Tested on: PPARg DBDmut:RXRa IVT, anti-PPARg (DBD mutation: PPARg1 K132A/R137A, NR concentration 270 nM, RXRa partner concentration 90 nM)
# method_description: PBM binding z-score (relative to random genomic background probes); higher = stronger binding; sequences stand for … in GC…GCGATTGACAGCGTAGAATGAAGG
test_readout: PBM binding z-score
API note: the answer field is a bare number with no unit suffix.

Solved cases below.
INSERT INTO results (entry_sequence, test_readout, result_number) VALUES
  ('TGTATGAGGTTAAAGATCAGGGAACGTGGCGTCG', 'PBM binding z-score', 0.959),
  ('TCTGCTAGGTCATCGATGGTCAGCTAATCTGCTA', 'PBM binding z-score', 0.105),
  ('GCTAGTTGGTCAGTAAAATGTCACACACCGGTCG', 'PBM binding z-score', 0.0763),
  ('TCTAGTCGGTCAAAGGTCACACACTCGAAATGCG', 'PBM binding z-score', 1.34),
  ('AGAATGGGGTTACCAAAGATCAGGGAAACGCTTG', 'PBM binding z-score', 1.57);

# get_value(readout='PBM binding z-score', item= "CCTACTGGGCCAAAGGTGATTGATTCCAATGCTC" )
0.238

Requested read-out: PBM binding z-score. Entry: "CGTCCAAGGTCTAGGTCAGTGAAAGAGACTCGAA"
-1.11

I have this sequence here, "GCATATAGGTAATACAAGGTCAAAGTCCGATTGT" , and I need its recorded PBM binding z-score.
0.883

What value of measured PBM binding z-score is listed for "TCTAGTTGGTCACGGAGGTCACAAACGACGGGTA" ?
0.857

Name the reported PBM binding z-score value associated with the sequence "TATACAGGGTCAAAGGCCAAAGTACGAATGTCGA"
2.17

Can you share its PBM binding z-score? I mean this sequence: "CCTTACGGGTTACTCCAGGTTATAGCATCGGAGT"
0.298

# get_value(readout='PBM binding z-score', item= "CGTCCAAGGACAATGCTAGGTCAGTGAAAGCATT" )
-1.55

Data provenance is the supplement of paper PMC6555819.
